Where do the numbers come from? From patent US5846516A.

- assay.name: Growth and viability of Namalva cell cultures
- Assay type: cell-based
- condition.summary: human, namalva cells, 0.1 g/L
endpoint.label: activity (%)
Field: numeric (%). Do not append units.

Task item: Data request, read-out activity, for O=P(O)(OCCC(F)(F)C(F)(F)C(F)(F)C(F)(F)C(F)(F)C(F)(F)F)OC[C@H]1OC(O)[C@H](O)[C@@H](O)[C@@H]1O (stereo partly shown)
Reply: 82
